pIC50: −log10 of the molar value.
PROPERTY: pIC50

Which pIC50 is reported with CDK-2 (Homo sapiens, UniProt P24941) for this entry: CN(C)C(=O)[C@H](Cc1ccc(O)cc1)NC(=O)c1cc(C(=O)O)c2cc(/C=C/c3ccc(Cl)cc3)ccc2n1 ?
> 6.00

Which pIC50 is reported with CDK-2 (Homo sapiens, UniProt P24941) for this entry: COC(=O)[C@H](Cc1ccc(O)cc1)NC(=O)c1cc(C(=O)O)c2cc(CCC(C)(C)C)ccc2n1 ?
> 6.00

Which pIC50 is reported with CDK-2 (Homo sapiens, UniProt P24941) for this entry: COC(=O)C(Cc1ccc(O)cc1)NC(=O)c1cc(C(=O)NC(C)C)c2cc(-c3cccs3)ccc2n1 (stereo not shown) ?
< 4.40

Which pIC50 is reported with CDK-2 (Homo sapiens, UniProt P24941) for this entry: O=C(NC(Cc1ccc(O)cc1)C1CCCCC1)c1cc(C(=O)O)c2cc(-c3cccc(C(F)(F)F)c3)ccc2n1 (stereo not shown) ?
> 6.00

Which pIC50 is reported with CDK-2 (Homo sapiens, UniProt P24941) for this entry: COC(=O)C(Cc1ccc(O)cc1)NC(=O)c1cc(C(=O)NC(C)(C)C(=O)O)c2cc(-c3cccs3)ccc2n1 (stereo not shown) ?
< 4.40

Which pIC50 is reported with CDK-2 (Homo sapiens, UniProt P24941) for this entry: COC[C@H](Cc1ccc(O)cc1)NC(=O)c1cc(C(=O)O)c2cc(C#Cc3cccnc3)ccc2n1 ?
4.40 to 6.00

Which pIC50 is reported with CDK-2 (Homo sapiens, UniProt P24941) for this entry: COC[C@H](Cc1ccc(O)cc1)NC(=O)c1cc(NS(=O)(=O)C(C)(C)C)c2cc(-c3cccc(COc4cccnc4)c3)ccc2n1 ?
4.40 to 6.00

----------
- TESTED_ON: CDK-2 (Homo sapiens)
- ASSAY_PROCEDURE: CDK-2 inhibition, fluorescence polarization displacement assay
PROPERTY: IC50

For the compound CCOC(=O)C#Cc1ccc2nc(C(=O)N[C@H](COC)Cc3ccc(O)cc3)cc(C(=O)O)c2c1 , what IC50 is on record?
> 40 µM

For the compound COC(=O)[C@H](Cc1c[nH]cn1)NC(=O)c1cc(C(=O)O)c2cc(-c3cccs3)ccc2n1 , what IC50 is on record?
> 40 µM

For the compound COC(=O)[C@H](Cc1ccc(O)cc1)NC(=O)c1cc(C(=O)OCCO)c2cc(-c3cccs3)ccc2n1 , what IC50 is on record?
> 40 µM

For the compound COC(=O)[C@H](Cc1ccc(O)cc1)NC(=O)c1cc(C(=O)O)c2cc(-c3ccc(C)c([N+](=O)[O-])c3)ccc2n1 , what IC50 is on record?
< 1 µM

For the compound COC(=O)[C@H](Cc1ccc(OC(C)(C)C)cc1)NC(=O)c1cc(C(=O)O)c2cc(-c3cccc(C(F)(F)F)c3)ccc2n1 , what IC50 is on record?
> 40 µM

For the compound COC(=O)[C@H](Cc1ccc(O)cc1)NC(=O)c1cc(C(=O)O)c2cc(/C=C/c3ccc(F)cc3)ccc2n1 , what IC50 is on record?
< 1 µM

For the compound COC(=O)[C@H](Cc1ccc(O)cc1)NC(=O)c1cc(C(=O)O)c2cc(CCc3ccc(C(F)(F)F)cc3)ccc2n1 , what IC50 is on record?
< 1 µM

For the compound CC(Cc1ccc(O)cc1)NC(=O)c1cc(C(=O)O)c2cc(-c3cccc(C(F)(F)F)c3)ccc2n1 (centres unmarked) , what IC50 is on record?
1 to 40 µM

For the compound CCCCOC(=O)c1cc(C(=O)N[C@@H](Cc2ccc(O)cc2)C(=O)OC)nc2ccc(-c3cccs3)cc12 , what IC50 is on record?
> 40 µM

For the compound COC(=O)[C@H](Cc1ccc(O)cc1)NC(=O)c1cc(C(=O)O)c2cc(-c3ccc(F)c(C)c3)ccc2n1 , what IC50 is on record?
< 1 µM

For the compound COC(=O)[C@H](Cc1ccc(O)cc1)NC(=O)c1cc(C(=O)O)c2cc(-c3cccc(C(C)C)c3)ccc2n1 , what IC50 is on record?
< 1 µM

For the compound COC(=O)c1cc(C(=O)N[C@@H](Cc2ccc(O)cc2)C(=O)OC)nc2ccc(-c3cccs3)cc12 , what IC50 is on record?
> 40 µM

For the compound COC[C@H](Cc1ccc(O)cc1)NC(=O)c1cc(C(=O)O)c2cc(-c3cccc(COc4cccnc4)c3)ccc2n1 , what IC50 is on record?
1 to 40 µM

For the compound COC[C@H](Cc1ccc(O)cc1)NC(=O)c1cc(C(=O)O)c2cc(COc3ccccc3OC)ccc2n1 , what IC50 is on record?
> 40 µM

----------
PROPERTY: IC50

Which IC50 is reported with UniProt:P24941 for this entry: CC(C)(C)S(=O)(=O)Nc1cc(C(=O)N[C@H](CN)Cc2ccc(O)cc2)nc2ccc(C#Cc3ccccn3)cc12 [Compound 225] ?
> 40 µM

Which IC50 is reported with UniProt:P24941 for this entry: COC[C@H](Cc1ccc(O)cc1)NC(=O)c1cc(S(C)(=O)=O)c2cc(-c3cccc(C(F)(F)F)c3)ccc2n1 [Compound 172] ?
> 40 µM

Which IC50 is reported with UniProt:P24941 for this entry: COC[C@H](Cc1ccc(O)cc1)NC(=O)c1cc(C(=O)O)c2cc(C#CCCCCN3CCN(C)CC3)ccc2n1 [Compound 219] ?
> 40 µM

Which IC50 is reported with UniProt:P24941 for this entry: COC[C@H](Cc1ccc(O)cc1)NC(=O)c1cc(C(=O)O)c2cc(C#CCN3CCS(=O)(=O)CC3)ccc2n1 [Compound 205] ?
> 40 µM

Which IC50 is reported with UniProt:P24941 for this entry: COC[C@H](Cc1ccc(O)cc1)NC(=O)c1cc(NS(=O)(=O)C(C)(C)C)c2cc(-c3cccc(COc4cccc[n+]4[O-])c3)ccc2n1 [Compound 98] ?
1 to 40 µM

Which IC50 is reported with UniProt:P24941 for this entry: COC[C@H](Cc1ccc(O)cc1)NC(=O)c1cc(C(=O)O)c2cc(CCc3cccnc3)ccc2n1 [Compound 187] ?
> 40 µM

Which IC50 is reported with UniProt:P24941 for this entry: COC(=O)[C@H](Cc1ccc(O)cc1)NC(=O)c1cc(C(=O)O)c2cc(-c3ccc(F)c(Cl)c3)ccc2n1 [Compound 50] ?
< 1 µM

Which IC50 is reported with UniProt:P24941 for this entry: COC[C@H](Cc1ccc(O)cc1)NC(=O)c1cc(C(=O)O)c2cc(C#CCCCCN)ccc2n1 [Compound 203] ?
> 40 µM

Which IC50 is reported with UniProt:P24941 for this entry: COC[C@H](Cc1ccc(O)cc1)NC(=O)c1cc(S(=O)(=O)O)c2cc(-c3cccc(C(F)(F)F)c3)ccc2n1 [Compound 71] ?
< 1 µM

Which IC50 is reported with UniProt:P24941 for this entry: COC(=O)[C@H](Cc1ccc(O)cc1)NC(=O)c1cc(C(=O)O)c2cc(-c3ccc(N(C)C)cc3)ccc2n1 [Compound 107] ?
1 to 40 µM

Which IC50 is reported with UniProt:P24941 for this entry: COC(=O)[C@H](Cc1ccc(O)cc1)NC(=O)c1cc(C(=O)O)c2cc(-c3ccc(N)cc3)ccc2n1 [Compound 145] ?
1 to 40 µM

Which IC50 is reported with UniProt:P24941 for this entry: COC(=O)[C@H](Cc1ccc(OC)cc1)NC(=O)c1cc(S(C)(=O)=O)c2cc(-c3cccc(C(F)(F)F)c3)ccc2n1 [Compound 171] ?
> 40 µM

Which IC50 is reported with UniProt:P24941 for this entry: COC[C@H](Cc1ccc(O)cc1)NC(=O)c1cc(C(=O)O)c2cc(CSc3ccncc3)ccc2n1 [Compound 208] ?
> 40 µM

Which IC50 is reported with UniProt:P24941 for this entry: O=C(N[C@@H](Cc1ccc(O)cc1)c1ncc[nH]1)c1cc(C(=O)O)c2cc(-c3cccc(C(F)(F)F)c3)ccc2n1 [Compound 86] ?
< 1 µM

Data provenance is patent EP1931657B1.
